Entries annotated with measured pIC50
# Test system: PLC-PRF-5;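 further: growth inhibition of human PLC-PRF-5 cells, read out with a viability assay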
# Assay Procedure: cells
# Type: functional, cell-based
# Measurement Parameters: Homo sapiens
# Description: SANGER: Inhibition of human PLC-PRF-5 cell growth in a cell viability assay.
pIC50: −log10 of the molar value.

                              smiles_record  assayed_system  reading
0  CN(c1ncccc1CNc1nc(Nc2ccc3c(c2)CC(=O)N3)ncc1C(F)(F)F)S(C)(=O)=O       PLC-PRF-5   < 5.59
1  Cc1cc([C@@H](C)Nc2ccccc2C(=O)O)c2nc(N3CCOCC3)cc(=O)n2c1       PLC-PRF-5   < 5.29
2  Cn1cncc1[C@@](N)(c1ccc(Cl)cc1)c1ccc2c(c1)c(-c1cccc(Cl)c1)cc(=O)n2C       PLC-PRF-5   < 4.80

Exercise: GET /values?readout=pIC50&item= C=CCc1cccc(/C=N/NC(=O)CN2CCN(Cc3ccccc3)CC2)c1O
Key: < 5.59

Exercise: GET /values?readout=pIC50&item= Cc1cnc(-c2cnc(NCCNc3ccc(C#N)cn3)nc2-c2ccc(Cl)cc2Cl)[nH]1
Key: < 5.59

---

# System: TE-8;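 further: growth inhibition of TE-8 cells, measured with a cell viability readout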
# Assay Procedure: cells
# Format: functional, cell-based, Homo sapiens
# Measurement Parameters: Homo sapiens, TE-8
# Description: SANGER: Inhibition of human TE-8 cell growth in a cell viability assay.
Entries annotated with measured IC50

Compound	Assayed System	Endpoint Name	Reading
O=C(/C=C/c1ccccc1)NC(NC(=S)Nc1cccc2cccnc12)C(Cl)(Cl)Cl (stereo unspecified)	TE-8	IC50	> 16 µM
COC(=O)CNC(=O)C(=O)OC	TE-8	IC50	2640 µM
CCc1nc(N)nc(N)c1-c1ccc(Cl)cc1	TE-8	IC50	> 20 µM
CCC1=C[C@@H]2CN(C1)Cc1c([nH]c3ccccc13)[C@@](C(=O)OC)(c1cc3c(cc1OC)N(C)[C@H]1[C@@](O)(C(=O)OC)[C@H](OC(C)=O)[C@]4(CC)C=CCN5CC[C@]31[C@@H]54)C2	TE-8	IC50	0.046 µM
C=C1C(=O)O[C@@H]2C3O[C@]3(C)CC/C=C(\C)CC[C@@H]12 (stereo partly specified)	TE-8	IC50	> 5 µM

Shift focus to the following entry.
Exercise: GET /values?readout=IC50&item= Cn1cc(C2=C(c3ccc(Cl)cc3Cl)C(=O)NC2=O)c2ccccc21
Key: > 10 µM

---

# Tested on: YKG-1
# Assay Procedure: cells
# Format: functional, cell-based, Homo sapiens
# Measurement Parameters: Homo sapiens, YKG-1
# Description: SANGER: Inhibition of human YKG-1 cell growth in a cell viability assay.
Entries annotated with measured pIC50
API: returns pIC50 as number; meaning -log10 of concentration in mol/L.

Smiles Record	Assayed System	Endpoint Name	Reading
Cn1cncc1[C@@](N)(c1ccc(Cl)cc1)c1ccc2c(c1)c(-c1cccc(Cl)c1)cc(=O)n2C	YKG-1	pIC50	6.28
CC(=O)O[C@@]12CO[C@@H]1C[C@H](O)[C@@]1(C)C(=O)[C@H](O)C3=C(C)[C@@H](OC(=O)[C@H](O)[C@@H](NC(=O)OC(C)(C)C)c4ccccc4)C[C@@](O)([C@@H](OC(=O)c4ccccc4)[C@H]21)C3(C)C	YKG-1	pIC50	9.15

Exercise: GET /values?readout=pIC50&item= COC(=O)CNC(=O)C(=O)OC
Key: 3.12

---

# Tested on: OCUB-M;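 further: growth inhibition of the cancer cell line, read out through a cell viability assay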
# Assay Procedure: cells
# Type: functional, cell-based, Homo sapiens
# Measurement Parameters: Homo sapiens, OCUB-M
# Description: SANGER: Inhibition of human OCUB-M cell growth in a cell viability assay.
Endpoint Name: IC50

Molecule	Endpoint Name	Reading
CCC1=C[C@@H]2CN(C1)Cc1c([nH]c3ccccc13)[C@@](C(=O)OC)(c1cc3c(cc1OC)N(C)[C@H]1[C@@](O)(C(=O)OC)[C@H](OC(C)=O)[C@]4(CC)C=CCN5CC[C@]31[C@@H]54)C2 [VINORELBINE]	IC50	0.00443 µM

Exercise: GET /values?readout=IC50&item= O=c1cc(-c2cccc3c2Sc2ccccc2S3)oc(N2CCOCC2)c1 [KU-55933]
Key: > 10 µM

Exercise: GET /values?readout=IC50&item= CCOc1nc(NC(=O)Cc2cc(OC)ccc2OC)cc(N)c1C#N
Key: > 10 µM

Exercise: GET /values?readout=IC50&item= CNC(=O)c1cc(Oc2ccc(NC(=O)Nc3ccc(Cl)c(C(F)(F)F)c3)cc2)ccn1 [SORAFENIB]
Key: > 4 µM

Exercise: GET /values?readout=IC50&item= Nc1ccn([C@@H]2O[C@H](CO)[C@@H](O)[C@@H]2O)c(=O)n1 [CYTARABINE]
Key: > 2 µM

Exercise: GET /values?readout=IC50&item= CC1=C2C[C@H]3[C@@H](CC=C4C[C@@H](O)CC[C@@]43C)[C@@H]2CC[C@]12O[C@@H]1C[C@H](C)CN[C@H]1[C@H]2C [CYCLOPAMINE]
Key: > 16 µM

Exercise: GET /values?readout=IC50&item= Cn1cc(C2=C(c3ccc(Cl)cc3Cl)C(=O)NC2=O)c2ccccc21 [SB-216763]
Key: > 10 µM

---

# Test system: LB373-MEL-D;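 further: growth inhibition of the cell line, read out in a cell viability assay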
# Assay Procedure: cells
# Format: functional, cell-based, Homo sapiens
# Measurement Parameters: Homo sapiens, LB373-MEL-D
# Description: SANGER: Inhibition of human LB373-MEL-D cell growth in a cell viability assay.
pIC50: −log10 of the molar value.
Endpoint Name: pIC50

Some compounds with known pIC50 results, for comparison:
                                   compound  endpoint_name  reading
0  CN(c1ncccc1CNc1nc(Nc2ccc3c(c2)CC(=O)N3)ncc1C(F)(F)F)S(C)(=O)=O [PF-00562271]          pIC50   < 5.59
1  CCC(=O)N1CCN(c2ccc(-n3c(=O)ccc4cnc5ccc(-c6cnc7ccccc7c6)cc5c43)cc2C(F)(F)F)CC1 [TORIN1]          pIC50     6.81

Exercise: Query the reported pIC50 for LB373-MEL-D; item: O=C(NOCC1CC1)c1ccc(F)c(F)c1Nc1ccc(I)cc1Cl [CI-1040]
Key: < 5.00

Exercise: Query the reported pIC50 for LB373-MEL-D; item: CCc1nc(N)nc(N)c1-c1ccc(Cl)cc1 [PYRIMETHAMINE]
Key: < 4.70

---

# System: NCI-H2009;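 further: cell viability assay measuring inhibition of NCI-H2009 cell growth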
# Assay Procedure: cells
# Assay type: functional, cell-based, Homo sapiens
# Measurement Parameters: Homo sapiens, NCI-H2009
# Description: SANGER: Inhibition of human NCI-H2009 cell growth in a cell viability assay.
Endpoint Name: IC50 (nM)
Please state the figure in nM; there is no need to write the unit.

Smiles Record	Assayed System	Unit Symbol	Reading
CCC1=C[C@@H]2CN(C1)Cc1c([nH]c3ccccc13)[C@@](C(=O)OC)(c1cc3c(cc1OC)N(C)[C@H]1[C@@](O)(C(=O)OC)[C@H](OC(C)=O)[C@]4(CC)C=CCN5CC[C@]31[C@@H]54)C2	NCI-H2009	nM	8.46

Shift focus to the following entry.
Exercise: GET /values?readout=IC50&item= Cn1cncc1[C@@](N)(c1ccc(Cl)cc1)c1ccc2c(c1)c(-c1cccc(Cl)c1)cc(=O)n2C
Key: 363

---

# Test system: NMC-G1;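 further: growth inhibition of the NMC-G1 cell line, measured with a cell viability read-out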
# Assay Procedure: cells
# Type: functional, cell-based, Homo sapiens
# Measurement Parameters: Homo sapiens, NMC-G1
# Description: SANGER: Inhibition of human NMC-G1 cell growth in a cell viability assay.
pIC50: −log10 of the molar value.
Entries annotated with measured pIC50

>>> df
                                   compound  assayed_system  endpoint_name  reading
0  C=C1C(=O)O[C@@H]2C3O[C@]3(C)CC/C=C(\C)CC[C@@H]12 (stereo partly drawn)          NMC-G1          pIC50   < 5.30
1   O=C1N=C(NCc2cccs2)S/C1=C\c1ccc2ncccc2c1          NMC-G1          pIC50   < 5.30
2  Cn1cc(C2=C(c3ccc(Cl)cc3Cl)C(=O)NC2=O)c2ccccc21          NMC-G1          pIC50   < 5.00
3  C=CCNC1=C2C[C@@H](C)C[C@H](OC)[C@H](O)[C@@H](C)/C=C(\C)[C@H](OC(N)=O)[C@@H](OC)/C=C\C=C(/C)C(=O)NC(=CC1=O)C2=O          NMC-G1          pIC50     6.53
4  CS(=O)(=O)CCNCc1ccc(-c2ccc3ncnc(Nc4ccc(OCc5cccc(F)c5)c(Cl)c4)c3c2)o1          NMC-G1          pIC50   < 5.70
5  CN(Cc1cnc2nc(N)nc(N)c2n1)c1ccc(C(=O)N[C@@H](CCC(=O)O)C(=O)O)cc1 [METHOTREXATE]          NMC-G1          pIC50   < 6.70
6  Cc1cc([C@@H](C)Nc2ccccc2C(=O)O)c2nc(N3CCOCC3)cc(=O)n2c1          NMC-G1          pIC50   < 5.29

Shift focus to the following entry.
Exercise: GET /values?readout=pIC50&item= CCc1nc(N)nc(N)c1-c1ccc(Cl)cc1
Key: < 4.70

Recorded values, source ChEMBL document CHEMBL1201861.
